The measurements presented in this section are drawn from BindingDB's records for doi:10.1021/jm00161a033.

molecular target: Aldose reductase (Oryctolagus cuniculus); assay: In vitro inhibition of rabbit lens aldose reductase.
ASSAY_METRIC: IC50 (nM)

| COMPOUND | NUMERIC_READOUT |
| --- | --- |
| O=C1Cc2ccc3c(c2O1)CCc1ccccc1C3=O | 770 |
| O=C(O)Cc1cc(O)c2c(=O)c3ccccc3ccc2c1 | 760 |
| O=C(O)Cc1ccc2c(c1)CCc1ccc(O)cc1C2=O | 830 |
| CC(C(=O)O)c1cc(O)c2c(c1)CCc1ccccc1C2=O (stereo not given) | 210 |
| O=C(O)Cc1ccc2c(=O)c3ccccc3ccc2c1 | 1000 |

(I) O=C(O)Cc1ccc2c(c1)CCc1ccccc1C2=O
(II) CC(C(=O)O)c1cc(O)c2c(=O)c3ccccc3ccc2c1 (stereo not given)
(III) O=C(O)Cc1ccc2c(c1)OCc1ccccc1C2=O [Oxepinac]
(IV) O=C(O)Cc1cc(O)c2c(c1)CCc1ccccc1C2=O
(V) O=C(O)Cc1ccc2c(c1)CCc1cccc(O)c1C2=O
// ascending sort on recorded IC50 Reply with the labels, ordered as the question asks.
III, II, IV, I, V
(III: 330 nM, II: 2700 nM, IV: 110000 nM, I: 160000 nM, V: 280000 nM)
